System: Aspergillus flavus
protocol notes: Antifungal activity against Aspergillus flavus ATCC 485 after 72 to 96 hrs by twofold serial dilution method
Assay type: functional
readout: MIC (µg/mL)
Give bare numbers, in µg/mL.

The following compounds have reported results that may help.
| compound | test target | MIC, µg/mL |
| --- | --- | --- |
| O=C1CS/C(=N\N=C2C3CCCC2C(c2ccccc2)NC3c2ccccc2)N1 (configuration not stated) | Aspergillus flavus | 200 |
| NC(=S)NN=C1C2CCCC1C(c1ccc(Cl)cc1)NC2c1ccc(Cl)cc1 (configuration not stated) | Aspergillus flavus | 6.25 |
| NC(=S)NN=C1C2CCCC1C(c1cccc(F)c1)NC2c1cccc(F)c1 (configuration not stated) | Aspergillus flavus | 50 |
| Cc1ccc(C2NC(c3ccc(C)cc3)C3CCCC2C3=N/N=C2/NC(=O)CS2)cc1 (configuration not stated) | Aspergillus flavus | 25 |
| O=C1CS/C(=N/N=C2C3CCCC2C(c2ccccc2Cl)NC3c2ccccc2Cl)N1 (configuration not stated) | Aspergillus flavus | 50 |

Hi! Can you tell me MIC for each of these compounds?
1. NC(=S)NN=C1C2CCCC1C(c1ccccc1)NC2c1ccccc1 (configuration not stated)
2. O=C1CS/C(=N\N=C2C3CCCC2C(c2ccc(F)cc2)NC3c2ccc(F)cc2)N1 (configuration not stated)

Reply text:
1: 200; 2: 100
